Target: P2Y12 receptor (Homo sapiens)
Experiment: [33P]-2MeS-ADP binding to recombinant human P2Y12 membranes (Assay 3)
Parameters: expressed in transfected cells; host or cells: HEK cells
Conditions: at highest concentration tested, 10 μM
Procedure: 3. Human P2Y12 Recombinant Cell Membrane Binding Assay with ^33P 2MeS-ADP. The ability of a test compound to bind to the P2Y12 receptor was evaluated in a recombinant cell membrane binding assay. […] Inhibition of binding of the labeled material was measured and correlated to the amount and potency of the test compound. […] The plates were incubated at room temperature for 1 hour. […] The filter plates were sealed, shaken for 30 minutes, and counted on a Top Count. […]
property-label: inhibition at 10 µM (%)
Kindly answer with a numeric value in %, unit omitted.

Reference set, count: 2
entry-smiles: CCc1cc2c(N3CCN(C(=O)CCC4CCCC4)CC3)nc(SCC(=O)OC)nc2s1
inhibition at 10 µM, %: 59

entry-smiles: CCc1cc2c(N3CCN(C(=O)c4ccc(-c5ccccc5)cc4)CC3)nc(SCCNC(C)=O)nc2s1
inhibition at 10 µM, %: 96.5

Continue with the compound presented below.
State the recorded inhibition at 10 µM for this entry: `CCc1cc2c(N3CCN(C(=O)c4ccc(C(N)=O)cc4)CC3)nc(SCC(=O)OC)nc2s1`
47.7

###

Molecular target: P2Y12 receptor (Homo sapiens, UniProt Q9H244)
Sequence (Q9H244 whole entry): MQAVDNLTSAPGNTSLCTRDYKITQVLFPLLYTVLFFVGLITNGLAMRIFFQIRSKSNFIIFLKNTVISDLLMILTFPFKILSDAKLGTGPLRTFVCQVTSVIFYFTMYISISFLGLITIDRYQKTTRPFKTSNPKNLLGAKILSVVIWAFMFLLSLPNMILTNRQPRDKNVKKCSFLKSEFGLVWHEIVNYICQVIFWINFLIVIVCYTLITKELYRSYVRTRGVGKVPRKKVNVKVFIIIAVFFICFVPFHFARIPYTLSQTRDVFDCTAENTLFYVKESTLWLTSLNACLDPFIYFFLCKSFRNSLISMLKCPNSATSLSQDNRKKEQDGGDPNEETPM
Test: [33P]-2MeS-ADP binding to recombinant human P2Y12 membranes (Assay 3)
Parameters: expressed in transfected cells; host or cells: HEK cells
Details: at highest concentration tested, 10 μM
So basically, the class depends on measured inhibition at 10 µM, and the ranges are bin 0: < 70%; bin 1: ≥ 70% and < 90%; bin 2: ≥ 90%

Observe how each entry below is paired with its result.
compound: CCc1cc2c(N3CCN(C(=O)c4ccc5c(c4)OCC5)CC3)nc(SCC(=O)OC)nc2s1 [Example 67]
category: bin 1
--
compound: CCc1cc2c(N3CCN(C(=O)CCOC)CC3)nc(SCC(=O)OC)nc2s1 [Example 58]
category: bin 0
--
compound: CCc1cc2c(N3CCN(C(=O)Cc4ccccc4)CC3)nc(SCCC(=O)OC)nc2s1 [Example 82]
category: bin 2
--
compound: C#CCCCCC(=O)N1CCN(c2nc(SCC(=O)OC)nc3sc(CC)cc23)CC1 [Example 36]
category: bin 2
--
compound: CCc1cc2c(N3CCN(C(=O)c4cccc(N(C)C)c4)CC3)nc(SCC(=O)OC)nc2s1 [Example 74]
category: bin 0
--
compound: CCc1cc2c(N3CCN(C(=O)c4nnc(-c5ccccc5)o4)CC3)nc(SCC(=O)OC)nc2s1 [Example 70]
category: bin 1

Which of the defined bands does the recorded inhibition at 10 µM of CCc1cc2c(N3CCN(C(=O)Cc4ccccc4)CC3)nc(SCC(N)=O)nc2s1 [Example 24] sit within?
bin 1

Same question, C=CCSc1nc(N2CCN(C(=O)Cc3ccccc3)CC2)c2cc(CC)sc2n1 [Example 10] this time
bin 1

Same question, CCc1cc2c(N3CCN(C(=O)c4ccc(-c5ccccc5)cc4)CC3)nc(SCC(O)CO)nc2s1 (centres unmarked) [Example 28] this time
bin 2

Same question, CCc1cc2c(N3CCN(C(=O)c4ccc5ccccc5c4)CC3)nc(SCC(=O)OC)nc2s1 [Example 55] this time
bin 0

Same question, CCc1cc2c(N3CCN(C(=O)c4ccc(-n5cccn5)cc4)CC3)nc(SCC(=O)OC)nc2s1 [Example 48] this time
bin 2

Same question, CCc1cc2c(N3CCN(C(=O)c4ccc(-c5ccccc5)cc4)CC3)nc(SCC(=O)OC)nc2s1 [Example 22] this time
bin 2

Same question, CCc1cc2c(N3CCN(C(=O)Cc4ccccc4)CC3)nc(SCC(=O)OC)nc2s1 [Example 7] this time
bin 2

Same question, CCc1cc2c(N3CCN(C(=O)c4ccc(C#N)cc4)CC3)nc(SCC(=O)OC)nc2s1 [Example 52] this time
bin 0

Same question, CCc1cc2c(N3CCN(C(=O)c4ccc(-c5csnn5)cc4)CC3)nc(SCC(=O)OC)nc2s1 [Example 66] this time
bin 1

Same question, CCc1cc2c(N3CCN(C(=O)c4ccc(-c5ccccc5)cc4)CC3)nc(SCCO)nc2s1 [Example 32] this time
bin 2

Same question, CCc1cc2c(N3CCN(C(=O)Cc4ccccc4)CC3)nc(SCC(=O)Nc3ccccc3)nc2s1 [Example 23] this time
bin 0

###

Biological target: P2Y12 receptor (Homo sapiens, UniProt Q9H244)
Test: [33P]-2MeS-ADP binding to recombinant human P2Y12 membranes (Assay 3)
Design: expressed in transfected cells; host or cells: HEK cells
Conditions: HEK cell membranes expressing human P2Y12, competition with 33P 2MeS-ADP
// values below are reported pIC50
Notebook: values listed as pIC50 are -log10 of the concentration (mol/L).

State the recorded pIC50 for this entry: CCc1cc2c(N3CCN(C(=O)CCC4CCCC4)CC3)nc(SCC(=O)OC)nc2s1 [Example 40]
5.38

Same question, CCc1cc2c(N3CCN(C(=O)c4ccc(OC)cc4)CC3)nc(SCC(=O)OC)nc2s1 [Example 59] this time
5.53

Same question, CCc1cc2c(N3CCN(C(=O)c4ccc5[nH]ccc5c4)CC3)nc(SCC(=O)OC)nc2s1 [Example 62] this time
5.23

Same question, CCc1cc2c(N3CCN(C(=O)c4cccc(C)c4)CC3)nc(SCC(=O)OC)nc2s1 [Example 61] this time
5.72

###

Molecular target: P2Y12 receptor (Homo sapiens, UniProt Q9H244)
Experiment: [33P]-2MeS-ADP binding to recombinant human P2Y12 membranes (Assay 3)
Set-up: expressed in transfected cells; host or cells: HEK cells
Details: HEK cell membranes expressing human P2Y12, competition with 33P 2MeS-ADP
pKi: −log10 of the molar value.
Mark class 0 for pKi values under 6, and class 1 for everything at or above.

Observe how each entry below is paired with its result.
entry-smiles: CCc1cc2c(N3CCN(C(=O)CCCCC(=O)OC)CC3)nc(SCC(=O)OC)nc2s1
category: class 0

entry-smiles: CCc1cc2c(N3CCN(C(=O)c4ccc(C(N)=O)cc4)CC3)nc(SCC(=O)OC)nc2s1
category: class 0

Item `CCc1cc2c(N3CCN(C(=O)c4ccc(-n5cccn5)cc4)CC3)nc(SCC(=O)OC)nc2s1` with pKi of 6 or above?
class 1

Same question, `CCCCOc1ccc(C(=O)N2CCN(c3nc(SCC(=O)OC)nc4sc(CC)cc34)CC2)cc1` this time
class 1

Same question, `CCc1cc2c(N3CCN(C(=O)c4cc(F)ccc4F)CC3)nc(SCC(=O)OC)nc2s1` this time
class 0

###

Target: P2Y12 receptor (Homo sapiens, UniProt Q9H244)
Experiment: [33P]-2MeS-ADP binding to recombinant human P2Y12 membranes (Assay 3)
Set-up: expressed in transfected cells; host or cells: HEK cells
Conditions: at highest concentration tested, 10 μM
// values below are reported inhibition at 10 µM
Kindly answer with a numeric value in %, unit omitted.

compound: CCOc1cccc(C(=O)N2CCN(c3nc(SCC(=O)OC)nc4sc(CC)cc34)CC2)c1
measurement-units: %
measured-value: 75.9

compound: CCc1cc2c(N3CCN(C(=O)c4ccc(-c5ccccc5)cc4)CC3)nc(SC(C)C(C)=O)nc2s1 (stereo not shown)
measurement-units: %
measured-value: 82.2

compound: CCc1cc2c(N3CCN(C(=O)Cc4ccccc4)CC3)nc(SCCNC(C)=O)nc2s1
measurement-units: %
measured-value: 87

Continue with the compound presented below.
State the recorded inhibition at 10 µM for this entry: `CCc1cc2c(N3CCN(C(=O)c4ccc(N(C)C)cc4)CC3)nc(SCC(=O)OC)nc2s1`
47.8

###

Biological target: P2Y12 receptor (Homo sapiens, UniProt Q9H244)
Experiment: [33P]-2MeS-ADP binding to recombinant human P2Y12 membranes (Assay 3)
Set-up: expressed in transfected cells; host or cells: HEK cells
Conditions: at highest concentration tested, 10 μM
// values below are reported inhibition at 10 µM
Kindly answer with a numeric value in %, unit omitted.

Reference set, count: 4
entry-smiles: C#CCCCC(=O)N1CCN(c2nc(SCC(=O)OC)nc3sc(CC)cc23)CC1
system: P2Y12 receptor (Homo sapiens, UniProt Q9H244)
inhibition at 10 µM, %: -4.55
--
entry-smiles: CCc1cc2c(N3CCN(C(=O)c4ccc(C(=O)OC)cc4)CC3)nc(SCC(=O)OC)nc2s1
system: P2Y12 receptor (Homo sapiens, UniProt Q9H244)
inhibition at 10 µM, %: 60
--
entry-smiles: CCc1cc2c(N3CCN(C(=O)c4cccc(OC)c4)CC3)nc(SCC(=O)OC)nc2s1
system: P2Y12 receptor (Homo sapiens, UniProt Q9H244)
inhibition at 10 µM, %: 70.5
--
entry-smiles: CCc1cc2c(N3CCN(C(=O)CCCCC(=O)OC)CC3)nc(SCC(=O)OC)nc2s1
system: P2Y12 receptor (Homo sapiens, UniProt Q9H244)
inhibition at 10 µM, %: 78.2

State the recorded inhibition at 10 µM for this entry: `CCc1cc2c(N3CCN(C(=O)c4csc(-c5cccnc5)n4)CC3)nc(SCC(=O)OC)nc2s1`
76.7

Same question, `CCc1cc2c(N3CCN(C(=O)Cc4ccccc4)CC3)nc(SCCc3ccncc3)nc2s1` this time
88.7

Same question, `CCc1cc2c(N3CCN(C(=O)c4cc(N(C)C)nc(N(C)C)n4)CC3)nc(SCC(=O)OC)nc2s1` this time
88.7

Same question, `CCOc1ccc(C(=O)N2CCN(c3nc(SCC(=O)OC)nc4sc(CC)cc34)CC2)cc1` this time
80.8
